This collection of values is drawn from paper PMC12027702.

MEASURED TARGET: mushroom tyrosinase
Construct: PDB 2Y9X is only the docking model
ASSAY METHOD TEXT: Dixon plot, L-DOPA oxidation, absorbance at […] nm
CONDITION DETAILS: L-DOPA substrate, phosphate buffer pH 6.88, 20 °C, 20 min preincubation, 10% DMSO; competitive
pKi: −log10 of the molar value.
VALUE KIND: pKi

(A) NC(=S)n1nc(-c2ccccc2)cc1O
(B) CCc1cc(CC)n(C(N)=S)n1
(C) Cc1cc(O)n(C(N)=S)n1
(D) Cc1cc(C)n(C(N)=S)n1
Lab note: rank above entries, pKi ascending. Labels, requested order.
A, B, D, C
(A: 3.93, B: 4.19, D: 4.83, C: 5.10)
